IC50 values for Glutathione S-transferase P (Homo sapiens) compiled from several publications are listed below.
Respond numerically; units are µM and should not be typed.

In the examples that follow, each entry is paired with its recorded IC50.
O=C(CCC(=O)OCCCCCCSc1ccc([N+](=O)[O-])c2nonc12)Nc1cccc(Cl)c1    28.8
O=C(CCC(=O)N1CCOCC1)OCCCCCCSc1ccc([N+](=O)[O-])c2nonc12    0.33
CO[C@]1(C)O[C@H]2[C@@H](OC/C=C/c3ccccc3)C=C(COC(C)=O)C(=O)[C@@H]2O[C@@]1(C)OC    58
O=C(CCC(=O)OCCCCCCSc1ccc([N+](=O)[O-])c2nonc12)Nc1ccc(F)cc1    8.57
O=C(O)CCc1ccc(Sc2ccc([N+](=O)[O-])c3nonc23)cc1    0.7
CN(C)CCNC(=O)CCC(=O)OCCCCCCSc1ccc([N+](=O)[O-])c2nonc12    0.54
O=C(NOCc1ccccc1)c1ccc(Sc2ccc([N+](=O)[O-])c3nonc23)cc1    1
O=C(NOCc1ccccc1)c1ccc(CSc2ccc([N+](=O)[O-])c3nonc23)cc1    0.2

Could you now look at the following compound, please?
Field request: IC50 | item: CCC(=O)CC(C)SCC(NC(=O)CCC(N)C(=O)O)C(=O)NCC(=O)O (stereo not drawn)
217
